Test: growth suppression of yeast trafficking mutant, preliminary HTS, modulators of trafficking downstream of Golgi apparatus project, 1536-format plate, OD 615 nm (AID 637)
Details: yeast transport mutant growth, absorbance 615 nm, 18 h; stronger effect = higher value
parameter: inhibition (%)
// units = %; emit number, no label

Input: Which inhibition value belongs to `CC(C)Sc1nc2c(c(=O)n1-c1ccc(F)cc1)SCC2` ?
Output: -4.35

---

Assay: doxorubicin toxicity protection in MRP-1 cells – H69AR cells, CellTiter-Glo, duplicate, MRP-1 activator project, pilot screen (AID 807);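 further: compound pretreatment 18-22 h then 72 h combined with doxorubicin; 0% = doxorubicin alone and 100% = vehicle without doxorubicin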
Conditions: H69AR viability with doxorubicin, CellTiter-Glo luminescence; at 10 µM; stronger effect = higher value
parameter: viability increase (%)
Numbers only; they are read as %.

{"compound": "CN(C)CCNC(=O)c1cc2cc(Br)ccc2oc1=O", "scale_unit": "%", "viability increase": -2.26}
{"compound": "O=C(C1CC1)N1CCc2cc(Br)cc(S(=O)(=O)N3CCN(c4ccccn4)CC3)c21", "scale_unit": "%", "viability increase": -2.17}
{"compound": "COc1ccc(S(=O)(=O)N(CC(=O)N2CCN(c3ccccc3OC)CC2)c2ccccc2)cc1", "scale_unit": "%", "viability increase": 5.84}

Input: Can you share its viability increase? I mean this compound: `CCc1cccc(NC(=O)Cn2cc3c(n2)CCCC3)c1`
Output: -1.41

Input: Moving on to `COC(=O)c1ccsc1NC(=O)CN1C(=O)CCC1=O`
Output: -1.57

Input: Same question for CCC(C)(C(=O)NC1CCCC1)N(CC1CCCO1)C(=O)CNC(=O)c1ccccc1 (stereo not given) please.
Output: -2.92

Input: Now try `O=C(Nc1nccs1)c1cc(S(=O)(=O)N2CCCCC2)ccc1Cl` .
Output: 0.46

Input: Moving on to the next compound: `COc1ccc(-n2ncc3c(N4CCC(C)CC4)ncnc32)cc1`
Output: -2.39

Input: Here is the next compound: CC1Cc2nc(SCC(=O)Nc3ccc4c(c3)OCO4)n(-c3ccc(F)cc3)c(=O)c2S1 (stereo not given)
Output: -2.53

---

Test: yeast transport mutant growth inhibition pilot in 384-well plates, post-Golgi transport modulator project (AID 636)
Details: absorbance 615 nm, about 18 h, stronger effect = higher value
Entries and their measured inhibition follow.
Give the quantity in %, number only.

{"compound": "Nc1[nH]nc2nc(N3CCCC3)nc(-c3ccccc3)c12", "scale_unit": "%", "numeric_result": -6.27}

Input: Need inhibition of `O=C(Nc1cccc(Cl)c1)N1CCN(Cc2ccccc2)CC1` , thanks.
Output: -6

Input: Input CCOc1ccc(NC(=O)CN2C(=O)C3CCCN3C2=O)cc1 (stereo unspecified)
Output: -2.53

Input: # iterate: `CCOC(=O)c1[nH]c(C)c(C(=O)NC)c1C`
Output: -0.26

Input: How about COC(=O)c1cn(NC(=O)C2CCCO2)c(=O)c2ccccc12 (stereo unspecified) ?
Output: -6.35

Input: Now give it for `CCOCC(=O)Nc1nc2c(s1)C(=O)CC(C)(C)C2` too.
Output: -7.73

---

Test: yeast transport mutant growth inhibition pilot in 384-well plates, post-Golgi transport modulator project (AID 636)
Details: absorbance 615 nm, about 18 h, stronger effect = higher value
parameter: inhibition (%)
Please give a number only; it is taken to be in %.

{"compound": "Cc1c(C(=O)Nc2nnc(C(F)(F)F)s2)oc2ccccc12", "numeric_result": -6}
{"compound": "CCCCNC(=O)Nc1ccnn1C1CCCCC1", "numeric_result": -3.64}
{"compound": "COc1ccc(NC(=O)Nc2ccc(N3CCCC3=O)cc2)cc1OC", "numeric_result": -4.93}
{"compound": "Cc1onc(-c2ccccc2Cl)c1C(=O)Nc1cnn(Cc2ccccc2)c1", "numeric_result": -5.73}
{"compound": "COc1ccc(-n2c(=O)c3c4c(sc3n3cnnc23)CC(C)CC4)cc1 (stereo unspecified)", "numeric_result": -8.11}
{"compound": "COc1cccc(C2=NOC(C(=O)N3CCc4ccccc4C3)C2)c1 (stereo unspecified)", "numeric_result": -1.41}
{"compound": "Cn1cccc1Cc1nnc(SCC(=O)NCc2ccc(F)cc2)n1-c1ccc(F)cc1", "numeric_result": -1.07}
{"compound": "O=C(Nc1ccc(N2CCCC2)cc1)c1ccc(Br)o1", "numeric_result": 0.27}

Input: Given the compound `COc1ccc(-c2nc(C)c(C(C)=O)n2O)cc1OC` , what is its reported inhibition?
Output: -2.05

Input: Check CCN(CC)C(=O)C1CCCc2c1[nH]c1ccc(Cl)cc21 (stereo unspecified) too.
Output: 8.13

Input: Ok, now `O=C(CSc1ncnc2nc[nH]c12)c1ccc(Cl)cc1`
Output: -3.47

---

Listed next: entries and their corresponding viability increase.
Test: doxorubicin toxicity protection in MRP-1 cells – H69AR cells, CellTiter-Glo, duplicate, MRP-1 activator project, pilot screen (AID 807);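 further: compound pretreatment 18-22 h then 72 h combined with doxorubicin; 0% = doxorubicin alone and 100% = vehicle without doxorubicin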
Conditions: H69AR viability with doxorubicin, CellTiter-Glo luminescence; at 10 µM; stronger effect = higher value
Value expressed in %; do not type the unit.

The cases that follow already have their viability increase on record.
{"molecule": "CN1CCN(c2cc(=O)n(-c3ccc(Cl)cc3)c(=O)[nH]2)CC1", "viability increase (%)": 0.27}
{"molecule": "COc1ccc(S(=O)(=O)N2CCN(Cc3c[nH]c4ccccc34)CC2)cc1", "viability increase (%)": -4.53}

Input: Consider the molecule `CC(C)CCNC(=O)CCS(=O)(=O)c1cccc2nonc12` and give its measured viability increase.
Output: -1.75

---

Assay: S. cerevisiae growth inhibition in permissive medium (OD615), pilot counter-assay for S. cerevisiae lifespan shortening project, permissive growth control (AID 705)
Conditions: OD615, 24 h, at 10 µM, stronger effect = higher value
The source made the active and inactive calls.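 How the source made its calls: active means growth inhibition above 25% in both replicates, a cutoff set 3 SD above the mean; inconclusive means above 25% in only one replicate; inactive means the rest.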
Each entry below carries its reported growth inhibition.

Check out these entries, answers already filled in.
{"compound": "O=C(NC1CCCCCC1)C1CCCN1S(=O)(=O)c1cccc2cccnc12 (stereo unspecified)", "parameter": "growth inhibition", "result": "-10.1% (inactive)"}
{"compound": "O=C(Nc1nc(-c2ccccn2)cs1)C1CC1", "parameter": "growth inhibition", "result": "0.675% (inactive)"}
{"compound": "Fc1ccc(-c2nnc(-c3ccc(Cl)cc3Cl)o2)cc1", "parameter": "growth inhibition", "result": "-6.69% (inactive)"}
{"compound": "Cc1ccc(OCCSc2cc(C)nc(N)n2)cc1", "parameter": "growth inhibition", "result": "-3.51% (inactive)"}
{"compound": "CN1CCc2c(sc3c2C(=O)NC(c2ccc(-c4cccc(Cl)c4)o2)N3)C1 (stereo unspecified)", "parameter": "growth inhibition", "result": "5% (inactive)"}

Input: So what does the record say about growth inhibition for `COc1ccc(-c2nnc(SCC(=O)N3CCOCC3)o2)cc1OC` ?
Output: 1.14% (inactive)

---

Experiment: yeast transport mutant growth inhibition pilot in 384-well plates, post-Golgi transport modulator project (AID 636)
Settings: absorbance 615 nm, about 18 h, stronger effect = higher value
parameter: inhibition (%)
Form entry: value (%) — number only.

{"compound": "COc1cccc2c(=O)c3c(cnn3C)n(C)c12", "scale_unit": "%", "inhibition": -1.97}
{"compound": "Cc1cc(/C=N/n2cnnc2)c(C)n1-c1cccc(Cl)c1", "scale_unit": "%", "inhibition": -5.26}
{"compound": "CCN(CC)c1ccc(NC(=O)c2nc3nc(C)cc(C(F)F)n3n2)cc1", "scale_unit": "%", "inhibition": -3.6}
{"compound": "COc1ccccc1CC(=O)Nc1ccc(OC)c(OC)c1", "scale_unit": "%", "inhibition": -6.76}
{"compound": "Cc1ccc(-c2cc(C(F)(F)F)n3nc(C(=O)N4CCCC4)cc3n2)cc1", "scale_unit": "%", "inhibition": -0.68}

The record that follows has no inhibition shown yet.
Input: Looking for the measured inhibition of O=C(C1CCCN1S(=O)(=O)c1cccc2cccnc12)N1CCn2c1nc1ccccc12 (stereo unspecified) , can you help?
Output: 0.9

---

Test: viability of HCT116 without oncogenic beta-catenin – human colon tumor cells, pilot screen (AID 823);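 further: 0% = wells killed by 20 µM Hyamine and 100% = untreated DMSO cell wells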
Conditions: HCT116 beta-catenin knockout viability, CellTiter-Glo, 60 h; at 10 µM; stronger effect = lower value
Results filed as inconclusive are left out.
Decision: viability beneath 90% gives Criterion met; viability meeting or exceeding 90% gives Criterion not met.

{"compound": "CCOC(=O)c1ccccc1NC(=O)c1ccc2c(=O)n3c(nc2c1)CCCCC3", "cat": "Criterion met"}
{"compound": "O=C(Cn1c(=O)sc2ccccc21)NCCOc1ccccc1F", "cat": "Criterion not met"}
{"compound": "COc1ccc(C(C)N2CC34C=CC(O3)C(C(=O)OCC(C)C)C4C2=O)cc1 (stereo not given)", "cat": "Criterion not met"}
{"compound": "Nc1cccc2c1C(=O)N(c1ccccc1)C2=O", "cat": "Criterion not met"}

Input: Field: below-cutoff. Rule: recorded viability strictly less than 90%. Subject: CC1=C(C(=O)OCc2ccccc2)C(c2ccco2)n2ncnc2N1 (stereo not given)
Output: Criterion not met

Input: Try O=C(O)c1cnn2c1NC(c1cccs1)CC2C(F)(F)F (stereo not given) next.
Output: Criterion not met

Input: # iterate: `COc1ccc(-n2c(Cc3cccn3C)nnc2SCC(=O)Nc2ccc3c(c2)OCCO3)cc1`
Output: Criterion not met

Input: // same read-out, input: `CCCCn1c(=NC(=O)c2cccnc2)c(C(=O)OCC)cc2c(=O)n3ccccc3nc21`
Output: Criterion met

Values were extracted from PubChem BioAssay.
